Tested on: 349418-098-R-PDC complex spheroid viability
Experiment: Anticancer human tumor 349418-098-R-PDC patient-derived lung adenocarcinoma cell line growth inhibition [RAS]
Conditions: second compound 0.1 µM; first compound 0.01 µM; active compounds read low
Friendly reminder: viability, T/C below 50% is Criterion met, at or above is Criterion not met.

Use these answered entries as a reference point.
1. C=CC(=O)Nc1cc(Nc2nccc(-c3cn(C)c4ccccc34)n2)c(OC)cc1N(C)CCN(C)C + C#Cc1c(F)ccc2cc(O)cc(-c3ncc4c(N5CC6CCC(C5)N6)nc(OCC56CCCN5CC(F)C6)nc4c3F)c12: Criterion not met
2. C=CC(=O)Nc1cc(Nc2nccc(-c3cn(C)c4ccccc34)n2)c(OC)cc1N(C)CCN(C)C + C=CC(=O)N1CCN(c2nc(OCC3CCCN3C)nc3c(F)c(-c4nc(N)cc(C)c4C(F)(F)F)c(Cl)cc23)C(C)C1: Criterion not met
3. CC(C)n1nc(-c2ccc3oc(N)nc3c2)c2c(N)ncnc21 + C#Cc1c(F)ccc2cc(O)cc(-c3ncc4c(N5CC6CCC(C5)N6)nc(OCC56CCCN5CC(F)C6)nc4c3F)c12: Criterion met
4. CC(C)n1nc(-c2ccc3oc(N)nc3c2)c2c(N)ncnc21 + C=CC(=O)N1CCN(c2nc(OCC3CCCN3C)nc3c(F)c(-c4nc(N)cc(C)c4C(F)(F)F)c(Cl)cc23)C(C)C1: Criterion met
5. O=C(c1ccc(F)c(F)c1Nc1ccc(I)cc1F)N1CC(O)([C@@H]2CCCCN2)C1 + C=CC(=O)N1CCN(c2nc(OCC3CCCN3C)nc3c(F)c(-c4nc(N)cc(C)c4C(F)(F)F)c(Cl)cc23)C(C)C1: Criterion met
6. CCN1CCN(Cc2ccc(Nc3ncc(F)c(-c4cc(F)c5nc(C)n(C(C)C)c5c4)n3)nc2)CC1 + C#Cc1c(F)ccc2cc(O)cc(-c3ncc4c(N5CC6CCC(C5)N6)nc(OCC56CCCN5CC(F)C6)nc4c3F)c12: Criterion not met
7. C=CC(=O)N1CCN(c2nc(OCC3CCCN3C)nc3c(F)c(-c4nc(N)cc(C)c4C(F)(F)F)c(Cl)cc23)C(C)C1 (stereo unspecified) + C#Cc1c(F)ccc2cc(O)cc(-c3ncc4c(N5CC6CCC(C5)N6)nc(OCC56CCCN5CC(F)C6)nc4c3F)c12: Criterion not met
8. Nc1ccn(C2OC(CO)C(O)C2(F)F)c(=O)n1 (stereo unspecified) + C=CC(=O)N1CCN(c2nc(OCC3CCCN3C)nc3c(F)c(-c4nc(N)cc(C)c4C(F)(F)F)c(Cl)cc23)C(C)C1: Criterion met
9. O=C(c1ccc(F)c(F)c1Nc1ccc(I)cc1F)N1CC(O)([C@@H]2CCCCN2)C1 + C#Cc1c(F)ccc2cc(O)cc(-c3ncc4c(N5CC6CCC(C5)N6)nc(OCC56CCCN5CC(F)C6)nc4c3F)c12: Criterion met

Then there is this compound:
Does the reported viability, T/C of the following compound sit strictly below 50%? Nc1ccn(C2OC(CO)C(O)C2(F)F)c(=O)n1 (stereo unspecified) + C#Cc1c(F)ccc2cc(O)cc(-c3ncc4c(N5CC6CCC(C5)N6)nc(OCC56CCCN5CC(F)C6)nc4c3F)c12
Criterion met

* * *

Tested on: 349418-098-R-PDC complex spheroid viability
Assay: Anticancer human tumor 349418-098-R-PDC cell line growth inhibition [RAS];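 note: spheroids exposed to compound for seven days before viability readout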
Details: second compound 0.000949 µM; first compound 0.0316 µM; active compounds read low
In this section we review reported viability, T/C values for a set of compounds.

1) NC1c2ccccc2OC12CCN(c1cnc3c(N4CCCc5ncccc54)n[nH]c3n1)CC2 (configuration not stated) + CCn1c(-c2cccnc2C(C)OC)c2c3cc(ccc31)N1CCOC(CC(NC(=O)C(C(C)C)N(C)C(=O)C3(F)CCN(C(=O)C#CC(C)(C)N(C)C)CC3)C(=O)N3CCCC(N3)C(=O)OCC(C)(C)C2)C1: 78.4%
2) CC(=O)OC12COC1CC(O)C1(C)C(=O)C(O)C3=C(C)C(OC(=O)C(O)C(NC(=O)OC(C)(C)C)c4ccccc4)CC(O)(C(OC(=O)c4ccccc4)C21)C3(C)C (configuration not stated) + CCn1c(-c2cc(N3CCN(C)CC3)cnc2C(C)OC)c2c3cc(ccc31)-c1csc(n1)CC(NC(=O)C1CC1C)C(=O)N1CCCC(N1)C(=O)OCC(C)(C)C2: 12.3%
3) CC(C)n1nc(-c2ccc3oc(N)nc3c2)c2c(N)ncnc21 + CCn1c(-c2cccnc2C(C)OC)c2c3cc(ccc31)N1CCOC(CC(NC(=O)C(C(C)C)N(C)C(=O)C3(F)CCN(C(=O)C#CC(C)(C)N(C)C)CC3)C(=O)N3CCCC(N3)C(=O)OCC(C)(C)C2)C1: 6.42%
4) C[C@@H](NC(=O)c1ncnc(N)c1Cl)c1ncc(C(=O)Nc2cc(C(F)(F)F)c(Cl)cn2)s1 + CCn1c(-c2cc(N3CCN(C)CC3)cnc2C(C)OC)c2c3cc(ccc31)-c1csc(n1)CC(NC(=O)C1CC1C)C(=O)N1CCCC(N1)C(=O)OCC(C)(C)C2: 105%
5) CCN1CCN(Cc2ccc(Nc3ncc(F)c(-c4cc(F)c5nc(C)n(C(C)C)c5c4)n3)nc2)CC1 + CCn1c(-c2cccnc2C(C)OC)c2c3cc(ccc31)N1CCOC(CC(NC(=O)C(C(C)C)N(C)C(=O)C3(F)CCN(C(=O)C#CC(C)(C)N(C)C)CC3)C(=O)N3CCCC(N3)C(=O)OCC(C)(C)C2)C1: 30.6%

Given the compound C=CC(=O)N1CCN(c2nc(OCC3CCCN3C)nc3c(F)c(-c4nc(N)cc(C)c4C(F)(F)F)c(Cl)cc23)C(C)C1 (configuration not stated) + CCn1c(-c2cc(N3CCN(C)CC3)cnc2C(C)OC)c2c3cc(ccc31)-c1csc(n1)CC(NC(=O)C1CC1C)C(=O)N1CCCC(N1)C(=O)OCC(C)(C)C2 , what is its reported viability, T/C?
109%

// lookup viability, T/C for C=CC(=O)Nc1cc(Nc2nccc(-c3cn(C)c4ccccc34)n2)c(OC)cc1N(C)CCN(C)C + CCn1c(-c2cc(N3CCN(C)CC3)cnc2C(C)OC)c2c3cc(ccc31)-c1csc(n1)CC(NC(=O)C1CC1C)C(=O)N1CCCC(N1)C(=O)OCC(C)(C)C2
112%

* * *

Tested on: 349418-098-R-PDC complex spheroid viability
Test: Anticancer human tumor 349418-098-R-PDC cell line growth inhibition [RAS];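 note: spheroids exposed to compound for seven days before viability readout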
Settings: second compound 0.000949 µM; first compound 0.1 µM; active compounds read low
viability, T/C values, listed per item
Unit % implied. Number only.

Guide cases for viability, T/C, answers given:
1. CC(C)NCC(C(=O)N1CCN(c2ncnc3c2C(C)CC3O)CC1)c1ccc(Cl)cc1 (stereo not given) + CCn1c(-c2cc(N3CCN(C)CC3)cnc2C(C)OC)c2c3cc(ccc31)-c1csc(n1)CC(NC(=O)C1CC1C)C(=O)N1CCCC(N1)C(=O)OCC(C)(C)C2: 86.3
2. CC(=O)OC12COC1CC(O)C1(C)C(=O)C(O)C3=C(C)C(OC(=O)C(O)C(NC(=O)OC(C)(C)C)c4ccccc4)CC(O)(C(OC(=O)c4ccccc4)C21)C3(C)C (stereo not given) + CCn1c(-c2cc(N3CCN(C)CC3)cnc2C(C)OC)c2c3cc(ccc31)-c1csc(n1)CC(NC(=O)C1CC1C)C(=O)N1CCCC(N1)C(=O)OCC(C)(C)C2: 12.4
3. CC1(O)CCCC1n1c(=O)c(C(F)F)cc2cnc(NC3CCN(S(C)(=O)=O)CC3)nc21 (stereo not given) + CCn1c(-c2cc(N3CCN(C)CC3)cnc2C(C)OC)c2c3cc(ccc31)-c1csc(n1)CC(NC(=O)C1CC1C)C(=O)N1CCCC(N1)C(=O)OCC(C)(C)C2: 34.3
4. NC1c2ccccc2OC12CCN(c1cnc3c(N4CCCc5ncccc54)n[nH]c3n1)CC2 (stereo not given) + CCn1c(-c2cccnc2C(C)OC)c2c3cc(ccc31)N1CCOC(CC(NC(=O)C(C(C)C)N(C)C(=O)C3(F)CCN(C(=O)C#CC(C)(C)N(C)C)CC3)C(=O)N3CCCC(N3)C(=O)OCC(C)(C)C2)C1: 93.4
5. C[C@@H](NC(=O)c1ncnc(N)c1Cl)c1ncc(C(=O)Nc2cc(C(F)(F)F)c(Cl)cn2)s1 + CCn1c(-c2cc(N3CCN(C)CC3)cnc2C(C)OC)c2c3cc(ccc31)-c1csc(n1)CC(NC(=O)C1CC1C)C(=O)N1CCCC(N1)C(=O)OCC(C)(C)C2: 85.8
6. C=CC(=O)Nc1cc(Nc2nccc(-c3cn(C)c4ccccc34)n2)c(OC)cc1N(C)CCN(C)C + CCn1c(-c2cccnc2C(C)OC)c2c3cc(ccc31)N1CCOC(CC(NC(=O)C(C(C)C)N(C)C(=O)C3(F)CCN(C(=O)C#CC(C)(C)N(C)C)CC3)C(=O)N3CCCC(N3)C(=O)OCC(C)(C)C2)C1: 98.3
7. CC1(O)CCCC1n1c(=O)c(C(F)F)cc2cnc(NC3CCN(S(C)(=O)=O)CC3)nc21 (stereo not given) + CCn1c(-c2cccnc2C(C)OC)c2c3cc(ccc31)N1CCOC(CC(NC(=O)C(C(C)C)N(C)C(=O)C3(F)CCN(C(=O)C#CC(C)(C)N(C)C)CC3)C(=O)N3CCCC(N3)C(=O)OCC(C)(C)C2)C1: 35.5
8. CC(Nc1ccc2c(c1)OCCn1cc(N3C(=O)OCC3C(F)F)nc1-2)C(N)=O (stereo not given) + CCn1c(-c2cc(N3CCN(C)CC3)cnc2C(C)OC)c2c3cc(ccc31)-c1csc(n1)CC(NC(=O)C1CC1C)C(=O)N1CCCC(N1)C(=O)OCC(C)(C)C2: 56.3

Please provide the recorded viability, T/C for O=C(c1ccc(F)c(F)c1Nc1ccc(I)cc1F)N1CC(O)([C@@H]2CCCCN2)C1 + CCn1c(-c2cccnc2C(C)OC)c2c3cc(ccc31)N1CCOC(CC(NC(=O)C(C(C)C)N(C)C(=O)C3(F)CCN(C(=O)C#CC(C)(C)N(C)C)CC3)C(=O)N3CCCC(N3)C(=O)OCC(C)(C)C2)C1 , tested on 349418-098-R-PDC complex spheroid viability.
12.7

What viability, T/C appears in the records for this molecule with 349418-098-R-PDC complex spheroid viability? Cc1nc(N2CCC3(CC2)COC(C)C3N)c(CO)nc1Sc1ccnc(N)c1Cl (stereo not given) + CCn1c(-c2cccnc2C(C)OC)c2c3cc(ccc31)N1CCOC(CC(NC(=O)C(C(C)C)N(C)C(=O)C3(F)CCN(C(=O)C#CC(C)(C)N(C)C)CC3)C(=O)N3CCCC(N3)C(=O)OCC(C)(C)C2)C1
86.4

What reported viability, T/C corresponds to CC(Nc1ccc2c(c1)OCCn1cc(N3C(=O)OCC3C(F)F)nc1-2)C(N)=O (stereo not given) + CCn1c(-c2cccnc2C(C)OC)c2c3cc(ccc31)N1CCOC(CC(NC(=O)C(C(C)C)N(C)C(=O)C3(F)CCN(C(=O)C#CC(C)(C)N(C)C)CC3)C(=O)N3CCCC(N3)C(=O)OCC(C)(C)C2)C1 on 349418-098-R-PDC complex spheroid viability?
36.7

What viability, T/C appears in the records for this molecule with 349418-098-R-PDC complex spheroid viability? C=CC(=O)Nc1cc(Nc2nccc(-c3cn(C)c4ccccc34)n2)c(OC)cc1N(C)CCN(C)C + CCn1c(-c2cc(N3CCN(C)CC3)cnc2C(C)OC)c2c3cc(ccc31)-c1csc(n1)CC(NC(=O)C1CC1C)C(=O)N1CCCC(N1)C(=O)OCC(C)(C)C2
109

// map CCC(CC)c1cc(NC2CCC(N)C2)n2nccc2n1 (stereo not given) + CCn1c(-c2cc(N3CCN(C)CC3)cnc2C(C)OC)c2c3cc(ccc31)-c1csc(n1)CC(NC(=O)C1CC1C)C(=O)N1CCCC(N1)C(=O)OCC(C)(C)C2 to recorded viability, T/C (system: 349418-098-R-PDC complex spheroid viability)
91.7

# value lookup — system 349418-098-R-PDC complex spheroid viability, readout viability, T/C, item CCN1CCN(Cc2ccc(Nc3ncc(F)c(-c4cc(F)c5nc(C)n(C(C)C)c5c4)n3)nc2)CC1 + CCn1c(-c2cc(N3CCN(C)CC3)cnc2C(C)OC)c2c3cc(ccc31)-c1csc(n1)CC(NC(=O)C1CC1C)C(=O)N1CCCC(N1)C(=O)OCC(C)(C)C2
28.7

Tell me reported viability, T/C for CCN1CCN(Cc2ccc(Nc3ncc(F)c(-c4cc(F)c5nc(C)n(C(C)C)c5c4)n3)nc2)CC1 + CCn1c(-c2cccnc2C(C)OC)c2c3cc(ccc31)N1CCOC(CC(NC(=O)C(C(C)C)N(C)C(=O)C3(F)CCN(C(=O)C#CC(C)(C)N(C)C)CC3)C(=O)N3CCCC(N3)C(=O)OCC(C)(C)C2)C1 , tested with 349418-098-R-PDC complex spheroid viability.
22.5
